target: T1, integrin αVβ5 (UniProt P06756 31-992; P18084 24-719); assay: phage ELISA, integrin coated, anti-M13-HRP
T1 construct: Coated on the ELISA plate
T1 sequence (P06756 31-992, chain 1 of 2): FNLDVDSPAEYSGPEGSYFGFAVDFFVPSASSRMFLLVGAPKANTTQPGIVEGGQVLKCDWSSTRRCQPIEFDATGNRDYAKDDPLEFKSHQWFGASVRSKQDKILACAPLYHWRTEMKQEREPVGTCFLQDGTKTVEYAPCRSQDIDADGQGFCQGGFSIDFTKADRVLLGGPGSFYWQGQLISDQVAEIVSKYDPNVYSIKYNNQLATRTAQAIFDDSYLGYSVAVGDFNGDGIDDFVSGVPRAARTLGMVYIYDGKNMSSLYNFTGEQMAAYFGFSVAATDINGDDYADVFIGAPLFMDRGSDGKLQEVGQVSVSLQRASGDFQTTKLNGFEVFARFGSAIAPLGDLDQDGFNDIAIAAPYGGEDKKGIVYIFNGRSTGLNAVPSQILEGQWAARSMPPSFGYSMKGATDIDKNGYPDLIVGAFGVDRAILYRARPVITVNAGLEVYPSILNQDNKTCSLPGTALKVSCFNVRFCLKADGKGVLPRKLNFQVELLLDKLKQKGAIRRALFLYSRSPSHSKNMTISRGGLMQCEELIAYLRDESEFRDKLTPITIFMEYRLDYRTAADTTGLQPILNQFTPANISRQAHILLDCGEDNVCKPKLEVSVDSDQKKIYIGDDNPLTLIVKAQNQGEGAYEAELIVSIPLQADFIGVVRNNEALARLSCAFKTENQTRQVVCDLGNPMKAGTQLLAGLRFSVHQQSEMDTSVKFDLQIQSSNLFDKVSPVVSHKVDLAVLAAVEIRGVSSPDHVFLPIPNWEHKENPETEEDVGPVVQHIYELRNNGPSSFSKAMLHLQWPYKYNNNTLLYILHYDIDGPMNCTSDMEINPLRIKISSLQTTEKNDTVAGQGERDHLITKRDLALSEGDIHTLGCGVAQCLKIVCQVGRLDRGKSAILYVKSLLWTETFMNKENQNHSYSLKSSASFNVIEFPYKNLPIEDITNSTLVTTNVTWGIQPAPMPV
T1 sequence (P18084 24-719, chain 2 of 2): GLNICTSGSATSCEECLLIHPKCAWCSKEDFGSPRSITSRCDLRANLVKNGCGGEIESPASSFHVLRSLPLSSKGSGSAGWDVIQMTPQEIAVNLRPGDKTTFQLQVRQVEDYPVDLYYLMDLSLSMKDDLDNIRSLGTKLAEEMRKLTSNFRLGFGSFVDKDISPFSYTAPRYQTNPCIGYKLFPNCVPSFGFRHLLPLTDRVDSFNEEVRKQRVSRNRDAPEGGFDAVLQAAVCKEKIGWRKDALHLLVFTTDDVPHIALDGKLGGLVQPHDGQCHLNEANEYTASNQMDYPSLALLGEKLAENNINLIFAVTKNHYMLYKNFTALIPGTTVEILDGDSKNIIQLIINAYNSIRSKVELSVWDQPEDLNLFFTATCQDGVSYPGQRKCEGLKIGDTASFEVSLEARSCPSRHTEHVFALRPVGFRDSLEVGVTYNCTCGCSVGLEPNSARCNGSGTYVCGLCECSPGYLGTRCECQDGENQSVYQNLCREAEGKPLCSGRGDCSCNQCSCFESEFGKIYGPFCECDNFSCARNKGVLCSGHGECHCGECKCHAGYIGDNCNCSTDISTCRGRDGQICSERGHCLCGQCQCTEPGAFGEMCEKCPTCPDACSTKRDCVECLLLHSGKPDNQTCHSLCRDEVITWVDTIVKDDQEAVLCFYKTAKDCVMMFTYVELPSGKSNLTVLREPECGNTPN
quantity.name: signal (OD)

binder	quantity.name	quantitative.readout
M13 phage pKK95 displaying MICA α3 domain with loop 3.4 in loop 1 (designed binder, not shown: large carriers) TVPPMVNVTRSARGDSDHRVTCRASGFYPWNITLSWRQDGVSLSHDTQQWGDVLPDGNGTYQTWVATRICQGEEQRFTCYMEHSGNHSTHPVPSGK	signal	0.232
M13 phage pKK101 displaying MICA α3 domain with extended loop 3.3sp in loop 1 (designed binder, not shown: large carriers) TVPPMVNVTSGGSGGGSRVPRGDSDLTSGGSGGGVTCRASGFYPWNITLSWRQDGVSLSHDTQQWGDVLPDGNGTYQTWVATRICQGEEQRFTCYMEHSGNHSTHPVPSGK	signal	1.23
M13 phage pKK138 displaying MICA α3 domain with extended 5.1sp in loop 1 and extended 5.3sp in loop 3 (designed binder, not shown: large carriers) TVPPMVNVTSGGSGGGSVTRGDTFTQSSGGSGGGVTCRASGFYPWNITLSWRQDGVSLSHDTQQWGDVLPDGNGTYQTWVATRISGGSGGGSHLARGDDLTYSGGSGGGCYMEHSGNHSTHPVPSGK	signal	2.75
M13 phage pKK102 displaying MICA α3 domain with extended loop 5.1sp in loop 1 (designed binder, not shown: large carriers) TVPPMVNVTSGGSGGGSVTRGDTFTQSSGGSGGGVTCRASGFYPWNITLSWRQDGVSLSHDTQQWGDVLPDGNGTYQTWVATRICQGEEQRFTCYMEHSGNHSTHPVPSGK	signal	0.771
M13 phage pKK104 displaying MICA α3 domain with extended loop 3.2sp in loop 3 (designed binder, not shown: large carriers) TVPPMVNVTRSEASEGNITVTCRASGFYPWNITLSWRQDGVSLSHDTQQWGDVLPDGNGTYQTWVATRISGGSGGGSTSRGDHPRTQSGGSGGGCYMEHSGNHSTHPVPSGK	signal	1.12
M13 phage pKK136 displaying MICA α3 domain with extended 5.1sp in loop 1 and extended 3.2sp in loop 3 (designed binder, not shown: large carriers) TVPPMVNVTSGGSGGGSVTRGDTFTQSSGGSGGGVTCRASGFYPWNITLSWRQDGVSLSHDTQQWGDVLPDGNGTYQTWVATRISGGSGGGSTSRGDHPRTQSGGSGGGCYMEHSGNHSTHPVPSGK	signal	4.28
M13 phage pKK96 displaying MICA α3 domain with loop 5.1 in loop 1 (designed binder, not shown: large carriers) TVPPMVNVTVTRGDTFTQSVTCRASGFYPWNITLSWRQDGVSLSHDTQQWGDVLPDGNGTYQTWVATRICQGEEQRFTCYMEHSGNHSTHPVPSGK	signal	2.42
M13 phage pKK93 displaying MICA α3 domain with loop 3.2 in loop 1 (designed binder, not shown: large carriers) TVPPMVNVTRTSRGDHPRTQVTCRASGFYPWNITLSWRQDGVSLSHDTQQWGDVLPDGNGTYQTWVATRICQGEEQRFTCYMEHSGNHSTHPVPSGK	signal	0.291
M13 phage pKK107 displaying MICA α3 domain with tight T-3.1 in loop 1 (designed binder, not shown: large carriers) TVPPMVNTSRGDHPRTQCRASGFYPWNITLSWRQDGVSLSHDTQQWGDVLPDGNGTYQTWVATRICQGEEQRFTCYMEHSGNHSTHPVPSGK	signal	1.49
